Target: BCL2 D103Y (Homo sapiens, UniProt P10415, D103Y)
Assay: TR-FRET competitive binding assay, BCL2 D103Y
Conditions: Ki determined from IC50, read-out: TR_FRET EKI_Bcl2 D103Y
metric: Ki (nM)

compound=Cc1c(N(C(=O)c2cc(-c3cc4c(cc3C(=O)N3Cc5ccccc5C[C@H]3C)CN(C(=O)Cc3ccc(OCCN5CCSCC5)cc3)CC4)n(C)c2C)c2ccc(O)cc2)cc(C#N)n1C value_units=nM value_measured=0.16
compound="Cc1c(N(C(=O)c2cc(-c3cc4c(cc3C(=O)N3Cc5ccccc5C[C@H]3C)CN(C(=O)Cc3ccc(OCCN5CCOCC5)cc3)CC4)n(C)c2C)c2ccccc2)cc(C#N)n1C [Example 236]" value_units=nM value_measured=0.786

a = Cc1c(N(C(=O)c2cc(-c3cc4c(cc3C(=O)N3Cc5ccccc5C[C@H]3C)CN(C(=O)Cc3ccc(OCCN5C[C@H](C)O[C@@H](C)C5)cc3)CC4)n(C)c2C)c2ccc(O)cc2)cc(C#N)n1C (single isomer, unassigned)
b = Cc1c(N(C(=O)c2cc(-c3cc4c(cc3C(=O)N3Cc5ccccc5C[C@H]3CN3CCCCC3)CN(C(=O)Cc3ccc(COCC5CCOCC5)cc3)CC4)n(C)c2C)c2ccc(O)cc2)cc(C#N)n1C
c = Cc1c(N(C(=O)c2cc(-c3cc4c(cc3C(=O)N3Cc5ccccc5C[C@H]3CN3CC[C@@H](C)C3)CN(C(=O)Cc3ccc(OCCN5CCOCC5)cc3F)CC4)n(C)c2C)c2ccc(O)cc2)cc(C#N)n1C
d = Cc1c(N(C(=O)c2cc(-c3cc4c(cc3C(=O)N3Cc5ccccc5C[C@H]3C)CN(C(=O)Cc3ccc(N5CCN6CCOC[C@@H]6C5)cc3F)CC4)n(C)c2C)c2ccc(O)cc2)cc(C#N)n1C
e = COc1ncc(N(C(=O)c2cc(-c3cc4c(cc3C(=O)N3Cc5ccccc5C[C@H]3C)CN(C(=O)Cc3ccc(OCCN5CCOCC5)cc3)CC4)n(C)c2C)c2ccc(O)cc2)cc1F
Prompt: Falling order of Ki, please. As an answer, provide the labels arranged in the order called for.
Response: a, e, b, d, c
